test system: rodent lifetime carcinogenesis bioassay, tumor incidence TD50; assay: carcinogenic potency in animals, long-term in vivo studies, CPDB compilation (AID 1745844); details: rat; strain Long-Evans BLU:(LE); both sexes; in drinking water; site: any site (literature study); lesion: malignant tumor; dosed 175 weeks; study length 175 weeks
Calls of active or inactive are those of the source. No rule for the calls is given here.
Measured parameter: TD50

Identify measured TD50 associated with CC(=O)[O-].CC(=O)[O-].[Cd+2] 5.1 mg/kg/day (inactive)

====

Give measured TD50 for each item. Keep answers brief.
test system: rodent lifetime carcinogenesis bioassay, tumor incidence TD50; assay: carcinogenic potency in animals, long-term in vivo studies, CPDB compilation (AID 1745844); settings: mouse; strain B6C3F1; females; by gavage; site: any site (literature study); lesion: several types; types named in the paper; dosed 78 weeks; study length 90 weeks
Answers are plain numbers, in mg/kg/day.

Consider the following illustrative entries.
ClC(Cl)(Cl)C(Cl)(Cl)Cl
1190
ClCC(Cl)Cl
52.9
ClC(Cl)=C(Cl)Cl
98.1

Output TD50 of ClC=C(Cl)Cl 1850

====

tested on: rodent lifetime carcinogenesis bioassay, tumor incidence TD50; experiment: carcinogenic potency in animals, long-term in vivo studies, CPDB compilation (AID 1745844); conditions: rat; strain Fischer 344; females; in feed; site: uterus; lesion: endometrial stromal polyp; dosed 103 weeks; study length 106 weeks
Measured parameter: TD50

Note TD50 for the molecule shown: Nc1cccc2c(N)cccc12 69.6 mg/kg/day

====

test system: rodent lifetime carcinogenesis bioassay, tumor incidence TD50; assay: carcinogenic potency in animals, long-term in vivo studies, CPDB compilation (AID 1745844); settings: mouse; strain B6C3F1; females; in feed; site: liver; lesion: several types; types named in the paper; dosed 96 weeks; study length 100 weeks
Measured parameter: TD50

Return reported TD50 for target or system rodent lifetime carcinogenesis bioassay, tumor incidence TD50, item CCOc1ccccc1C(N)=O . 3310 mg/kg/day

====

tested on: rodent lifetime carcinogenesis bioassay, tumor incidence TD50; assay: carcinogenic potency in animals, long-term in vivo studies, CPDB compilation (AID 1745844); settings: mouse; strain Swiss albino; males; in drinking water; site: lung; lesion: adenoma; dosed 109 weeks; study length 109 weeks
Measured parameter: TD50 (mg/kg/day)
Numbers only, in mg/kg/day.

Look up TD50 of CCCCN(N)CCCC and report it. 44.9

====

test system: rodent lifetime carcinogenesis bioassay, tumor incidence TD50; experiment: carcinogenic potency in animals, long-term in vivo studies, CPDB compilation (AID 1745844); conditions: mouse; strain Charles River CD1; females; inhaled; site: liver; lesion: several types; types named in the paper; dosed 98 weeks; study length 98 weeks
Measured parameter: TD50 (mg/kg/day)
Answers are plain numbers, in mg/kg/day.

Consider the compound C=Cc1ccccc1 . State its measured TD50. 13600

====

test system: rodent lifetime carcinogenesis bioassay, tumor incidence TD50; assay: carcinogenic potency in animals, long-term in vivo studies, CPDB compilation (AID 1745844); details: rat; strain BD; both sexes; in feed; site: mammary gland; lesion: fibroadenoma; dosed 104 weeks; study length 120 weeks
Active and inactive are the calls of the source. No rule for the calls is given here.
Measured parameter: TD50

Look up and report measured TD50 (rodent lifetime carcinogenesis bioassay, tumor incidence TD50) for the following compound: [O]=[Bi] 150000 mg/kg/day (inactive)

====

system: rodent lifetime carcinogenesis bioassay, tumor incidence TD50; assay: carcinogenic potency in animals, long-term in vivo studies, CPDB compilation (AID 1745844); conditions: rat; strain Charles River CD (Sprague-Dawley); males; by gavage; site: stomach; lesion: papilloma; dosed 104 weeks; study length 104 weeks
Measured parameter: TD50 (mg/kg/day)
Give bare numbers, in mg/kg/day.

Supply TD50 value. Item: CC(C)n1c(/C=C/[C@H](O)C[C@H](O)CC(=O)O)c(-c2ccc(F)cc2)c2ccccc21 610
